assay: qHTS Assay for Lipid Storage Modulators (AID 1519); details: Drosophila S3 cells, BODIPY lipid droplet/cell ratio, laser cytometry; at 25.7 µM (top of the series); cells loaded with oleic acid; also: % is scaled to controls: 0 for no effect and ±100 for the full control effect
Results filed as inconclusive are left out.
reported property: activity change, negative = inhibition (%)
Numbers only; they are read as %.

Request: Fill in the blank: the reported activity change, negative = inhibition of Clc1cnccn1 is ____.
Result: 2.5

Request: Request the reported activity change, negative = inhibition associated with CC(=O)O[C@H]1C[C@@]2(C)[C@H](C[C@@H](O)[C@H]3[C@@]4(C)CC[C@@H](O)[C@@H](C)[C@H]4CC[C@@]32C)C1=C(CCC=C(C)C)C(=O)O
Result: -3.43

Request: Item CC(=O)N[C@@H](CC(=O)O)C(=O)O has what recorded activity change, negative = inhibition?
Result: -1.04

Request: Need activity change, negative = inhibition of C1CCN2C[C@@H]3C[C@@H](CN4CCCC[C@H]34)[C@H]2C1 , thanks.
Result: -1.82

Request: # input compound: CCC(C)(C)C(=O)O[C@@H]1C[C@H](C)C=C2C=C[C@H](C)[C@@H](CC[C@H]3C[C@@H](O)CC(=O)O3)[C@H]21 ; wanted: its activity change, negative = inhibition
Result: -9.23

Request: Bench note: what activity change, negative = inhibition did Cc1ccc(S(=O)(=O)NC(=O)NN2C[C@H]3CCC[C@@H]3C2)cc1 show?
Result: 2.69

Request: Could you tell me which activity change, negative = inhibition is on file for CCc1c(C)[nH]c2c1C(=O)[C@H](CN1CCOCC1)CC2 ?
Result: 0.521

Request: Field request: activity change, negative = inhibition | item: CC(C)CC(=O)N[C@H](C(=O)N[C@H](C(=O)N[C@@H](CC(C)C)[C@H](O)CC(=O)N[C@@H](C)C(=O)N[C@@H](CC(C)C)[C@H](O)CC(=O)O)C(C)C)C(C)C
Result: 1.03

Request: Fill in: activity change, negative = inhibition of C[C@H](N)CCCC(C)(C)O is ___
Result: -0.344

====

tested on: SC27B; assay: qHTS profiling for inhibitors of Plasmodium falciparum proliferation (AID 504749); also: nearly all actives have a fitted effect of over 60% in size; settings: P. falciparum in erythrocytes, SYBR Green DNA, 72 h; series mostly up to 12.8 µM
Inconclusive results are not listed. Active and inactive are the calls of the source. Calls follow the shape of the dose curve; as a rule, active = well fitted inhibition curve with a large enough effect; inconclusive = small, poorly fitted or top-dose-only effect; inactive = flat fitted curve, though single readings scatter.
API: response.call in active, inactive

Request: Which outcome did this test record for the compound Cc1ncc([N+](=O)[O-])n1C[C@H](O)CCl ?
Result: inactive

Request: I'd appreciate the recorded outcome for Clc1ccc([C@H](Cn2ccnc2)OCc2csc3c(Cl)cccc23)c(Cl)c1 from this test.
Result: active

Request: Kindly provide the recorded test outcome for the following compound: COc1ccc(C[C@@](C)(N)C(=O)O)cc1OC
Result: inactive

Request: Which outcome was assigned to COC(=O)N/N=C/C1=C[N+](=O)c2ccccc2[N+]1=O in this test?
Result: inactive

Request: Could you check what this test reported for CO[C@H]1[C@@H](OC(N)=O)[C@H](O)[C@@H](Oc2ccc3c(O)c(NC(=O)c4ccc(O)c(CC=C(C)C)c4)c(=O)oc3c2C)OC1(C)C ?
Result: inactive

Request: Assay outcome for CC(C)C1CCC(C(=O)NC(Cc2ccccc2)C(=O)O)CC1 (configuration not stated) : what was it?
Result: inactive

Request: Short answer needed: outcome of this test for CO[C@H]1[C@H](O[C@H]2O[C@@H](C)[C@@H](O[C@@H]3C[C@](C)(O)[C@H](OC(=O)CC(C)C)[C@H](C)O3)[C@@H](N(C)C)[C@@H]2O)[C@@H](CC=O)C[C@@H](C)[C@@H](O)/C=C\C=C/C[C@@H](C)OC(=O)C[C@H]1OC(C)=O ?
Result: inactive

Request: What did this assay record as the result for NC(C(=O)O)[C@@H]1CC(Cl)=NO1 (some centres not stated) ?
Result: active

Request: Dear all, I need the recorded test outcome for O=C(O)[C@@H]1[C@@H]2C[C@H]3c4[nH]c5ccccc5c4CCN3C[C@@H]2CC[C@@H]1O , thank you.
Result: inactive

Request: What was the test verdict on C[C@@]12CC[C@H]3[C@@H](CCC4=CC(=O)CC[C@]43C)[C@H]1CC[C@H]2C(=O)CO ?
Result: inactive

Request: For this compound, state the assay outcome: C[N+]12CCC(CC1)[C@@H](OC(=O)C(O)(c1ccccc1)c1ccccc1)C2
Result: inactive

Request: Call for entry O=C1O[C@H](CN2CCOCC2)CN1/N=C\c1ccc([N+](=O)[O-])o1 :
Result: inactive

Request: Assay result, entry O=C(OC[C@@H](O)CO)c1ccccc1Nc1ccnc2cc(Cl)ccc12 — outcome?
Result: inactive

Request: # lookup: test call for C=Cc1c(C)c2cc3nc(cc4[nH]c(cc5nc(cc1[nH]2)C(C)=C5CCC(=O)O)c(CCC(=O)OC)c4C)[C@@]1(C)C3=CC=C(C(=O)OC)[C@H]1C(=O)OC (tested in a mixture with another compound)
Result: active

Request: What is the recorded call for this compound in the test? CCC1OC(=O)C(C)[C@@H](O[C@H]2C[C@@](C)(OC)C(O)C(C)O2)C(C)[C@@H](O[C@@H]2OC(C)CC(N(C)C)C2O)[C@@](C)(O)CC(C)C(=O)[C@@H](C)C(O)[C@]1(C)O (some centres not stated)
Result: inactive

Request: Please indicate how the test categorized C[C@]12CCC(=O)C=C1CCC1C2C(=O)C[C@]2(C)C1CC[C@]2(O)C(=O)CO (some centres not stated) .
Result: inactive

Request: Query: recorded result category for CC(=O)N[C@@H]1C(O)OC(CO)C(O)C1O (some centres not stated) in this test
Result: inactive

====

tested on: ATS95; test: qHTS profiling for inhibitors of Plasmodium falciparum proliferation (AID 504749); also: nearly all actives have a fitted effect of over 60% in size; conditions: P. falciparum in erythrocytes, SYBR Green DNA, 72 h; series mostly up to 12.8 µM
Records with an inconclusive call do not appear. Active and inactive are the calls of the source. The call rests on the fitted dose curve; in most records, active means well fitted inhibition curve with a large enough effect; inconclusive means small, poorly fitted or top-dose-only effect; inactive means flat fitted curve, though single readings scatter. Bridge positions count the residues as written; N and C are the ends. Square brackets hold non-standard residues; d marks the D form. Peptide text beside a SMILES is read from it. * marks the point of attachment. Ileψ(thiazoline)Cys = CC[C@H](C)[C@H](N)C1=N[C@H](C(=O)*)CS1; d(aIle) = CC[C@H](C)[C@@H](N)C(=O)O; dOrn = NCCC[C@@H](N)C(=O)O
API: response.call in yes for active, no for inactive

Request: Lab log entry: CC[N+](CC)(CC)CC[C@](O)(c1ccccc1)C1CCCCC1 — outcome as called in the assay?
Result: no

Request: Please let me know the test result on file for Cc1ccc2c(c1)c1c3n2CCN[C@H]3CCC1 .
Result: no

Request: Please state the recorded outcome for this compound: CC(C)(C)NC[C@@H](O)COc1ccccc1C1CCCC1
Result: yes

Request: Fill in: this test's call for CC1CCC(C(C)C)C(=O)C1 (stereo not given) is ___
Result: no

Request: Outcome logged for O=C(Nc1ccccc1)OC[C@H](CN1CCCCC1)OC(=O)Nc1ccccc1 in this assay:
Result: no

Request: Can you look up the reported call for NS(=O)(=O)c1cc2c(cc1Cl)N[C@@H](CC1CCCC1)NS2(=O)=O for me?
Result: no

Request: Short answer needed: outcome of this test for COc1ccc(-c2cc(=O)c3c(O)cc(O[C@H]4OC(COC5OC(C)C(O)C(O)[C@H]5O)C(O)C(O)C4O)cc3o2)cc1O (stereo not given in full) ?
Result: no

Request: State the result this test recorded for O=C(NC[C@@H](O)CO)c1c(I)c(C(=O)NC[C@@H](O)CO)c(I)c(N(CCO)C(=O)CO)c1I .
Result: no

Request: Could you check what this test reported for COc1ccc(OC)c([C@H](O)CNC(=O)CN)c1 ?
Result: no

Request: Could you please tell me the result logged for CCN1CCC[C@@H](OC(=O)C(c2ccccc2)c2ccccc2)C1 in this assay?
Result: no

Request: # lookup: test call for CN1C(=O)C[C@H](c2ccccc2)C1=O
Result: yes

Request: Recorded test outcome, item c1ccc2c(c1)CCC[C@@H]2C1=NCCN1
Result: no

Request: How did this test come out for COC(=O)N/N=C/C1=C[N+](=O)c2ccccc2[N+]1=O ?
Result: no

Request: I would be grateful if you could indicate the recorded call for CC(C)NC[C@H]1CCc2cc(CO)c([N+](=O)[O-])cc2N1 .
Result: no

Request: # lookup: test call for CC1(C)S[C@H]2C(NC(=O)[C@@H](N)c3ccc(O)cc3)C(=O)N2[C@@H]1C(=O)O (stereo not given in full)
Result: no

Request: Test call, this compound: COc1ccccc1OC[C@H](O)CO
Result: no

Request: Returns: the outcome recorded for CC(=O)O[C@]1(C(C)=O)CC[C@@H]2[C@@H]3C=C(C)C4=CC(=O)CC[C@@]4(C)[C@H]3CC[C@]21C in this assay.
Result: no

Request: Hi, sorry to bother you, what did the test record for NCC1CCC(N)C(O[C@@H]2C(O)[C@H](O[C@H]3OC(CO)C(O)C(N)C3O)[C@@H](N)C[C@H]2N)O1 (stereo not given in full) ?
Result: no

Request: Outcome logged for OCC1OC(n2cnc3c(=S)nc[nH]c32)C(O)C1O (stereo not given) in this assay:
Result: no

Request: Hi team, can someone confirm the assay call for NC(=O)c1cc[n+](CC2=C(C(=O)[O-])N3C(=O)[C@@H](NC(=O)Cc4cccs4)[C@@H]3SC2)cc1 ?
Result: no

Request: Test call, this compound: CCCC(=O)O[C@]1(C(=O)CO)CCC2[C@@H]3CCC4=CC(=O)CC[C@]4(C)C3C(O)C[C@]21C (stereo not given in full)
Result: no

Request: Each compound tested received a call. Report the one for CC(=O)OC1CCC2C3CCc4cc(O)ccc4C3CCC12C (stereo not given) .
Result: no

Request: Returns: the outcome recorded for CCCCC[C@H](O)/C=C\[C@H]1[C@H](C/C=C\CCCC(=O)O)[C@@H](O)C[C@H]1O (tested in a mixture with another compound) in this assay.
Result: no

Request: For this compound, state the assay outcome: CC(C)Oc1ccc2c(=O)cc(-c3ccccc3)oc2c1
Result: no

Request: Which outcome did this test record for the compound COc1ccc2cc(C(C)CO)ccc2c1 (stereo not given) ?
Result: no

Request: What was the test verdict on CC=C(/C(=C/C)c1ccc(O)cc1)c1ccc(O)cc1 ?
Result: no

Request: In this assay, the call recorded for C[C@H]1CS(=O)(=O)CCN1/N=C\c1ccc([N+](=O)[O-])o1 was what?
Result: no

Request: # fetch the recorded call for CC(C)=CCC[C@](C)(O)C1CC=C(C)CC1 (stereo not given in full) here
Result: no

Request: What did this assay record as the result for CCCC[C@H](CC)CN1CN(C[C@@H](CC)CCCC)CC(C)(N)C1 ?
Result: no

Request: How was Cc1ncc([N+](=O)[O-])n1C[C@H](O)CCl classified in this test?
Result: no

Request: Write down the call the test reported for this compound. Item: CCOC(=O)O[C@@H](C)OC(=O)[C@@H]1N2C(=O)[C@@H](NC(=O)[C@@H](N)c3ccccc3)[C@H]2SC1(C)C
Result: no

Request: # fetch the recorded call for NC[C@@H]1O[C@H](O[C@H]2[C@H](O)[C@H](O[C@@H]3O[C@H](CO)[C@@H](O)[C@H](N)[C@@H]3O)[C@@H](N)C[C@H]2N)[C@@H](O)[C@H](O)[C@@H]1O here
Result: no

Request: Hello, I am checking results. What call was entered for CCN[C@@H]1C[C@H](N)[C@H](O[C@H]2OC(CN)=CC[C@H]2N)[C@@H](O)[C@H]1O[C@H]1OC[C@@](C)(O)[C@@H](NC)[C@@H]1O ?
Result: no

Request: Given CC(=O)[C@@]1(O)CC[C@H]2[C@H]3C[C@@H](C)C4=CC(=O)C=C[C@]4(C)[C@@]3(F)[C@@H](O)C[C@]21C , state the outcome it received in this test.
Result: no

Request: Tell me the recorded outcome of this test for CC[C@H](C)[C@H](N)C1=N[C@H](C(=O)N[C@@H](CC(C)C)C(=O)N[C@@H](CCC(=O)O)C(=O)N[C@@H](C(=O)N[C@H]2CCCCNC(=O)[C@@H](CC(N)=O)NC(=O)[C@@H](CC(=O)O)NC(=O)[C@@H](Cc3cnc[nH]3)NC(=O)[C@@H](Cc3ccccc3)NC(=O)[C@@H]([C@@H](C)CC)NC(=O)[C@@H](CCCN)NC2=O)[C@@H](C)CC)CS1 ({Ileψ(thiazoline)Cys}-LE[d(aIle)]K[dOrn][d(aIle)][dF][dH][dD][dN]; lactam 4-C) .
Result: no
